Just for reference, patent US20220185900A1 is where these values come from.

Biological target: T1, hRET.mFc (human)
T1 construct: also called dimeric human RET
Assay: SPR Biacore T200, mAb capture, 25 C
Description: Binding affinities and kinetic constants of human anti-RET antibodies were determined by surface plasmon resonance (Biacore T200) at […] (Tables 2-3). […] Binding equilibrium dissociation constants (KD) and dissociative half-lives (t_{1/2}) were calculated from the kinetic rate constants as: KD [M]=kd/kₐ; and t_{1/2}(min)=(ln2/(60*kd). Calculations were performed using BiacoreT200 evaluation software v1.0.
METRIC: log10 Kd (log10 of the value in nM)
For clarity, the numbers are log10 values of Kd expressed in nM.

Example cases with answers are listed next.
BINDER	RECORDED MEASUREMENT
H4H8067P (antibody, human IgG4, V domains shown, human IgG4 Fc (H4H prefix)) VH: QVQLVESGGGVVQPGRSLRLSCVASGFTFSNYGMHWVRQAPGKGLEWVALIWYDGSNKYFADSVKGRFTISRDNSKRMMFLEMNSLRAEDTAIYYCTRDRLFDFWGQGTLVTVSS VL: AIQMTQSPSSLSASVGDRVSITCRASQDIRHDLGWFHQKPGKAPKLLIYAASTLQSGVPSRFGGSGSGTDFTLTITSLQPEDFGTYYCLQDYNYPATFGQGTRLEIK	-0.03
H4H8060P (antibody, human IgG4, V domains shown, human IgG4 Fc (H4H prefix)) VH: QVTLKESGPVLVKPTETLTLTCTVSGFSLSSARMGVSWIRQPPGKALEWLAHIFSTDEKSYSTSLKSRLSISKDTSLSQVVLIMTNMDPVDTATYYCARRTTMAPYYYYYGMDVWGHGTTVTVSS VL: AIQMTQSPASLSASVGDRVTITCRASQGIRNDLGWYQQKPGKAPKLLISAASSLQSGVPSRFSGSGSGTDFTLTISSLQPEDFATYYCLQDYKYPWTFGQGTKVEIK	-0.75
H4H8058P (antibody, human IgG4, V domains shown, human IgG4 Fc (H4H prefix)) VH: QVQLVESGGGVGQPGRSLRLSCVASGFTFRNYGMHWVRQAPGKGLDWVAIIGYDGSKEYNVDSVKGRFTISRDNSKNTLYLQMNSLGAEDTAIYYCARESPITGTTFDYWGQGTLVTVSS VL: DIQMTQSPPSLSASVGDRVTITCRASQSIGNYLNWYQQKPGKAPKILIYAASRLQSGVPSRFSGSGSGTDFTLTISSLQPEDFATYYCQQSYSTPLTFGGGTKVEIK	0.04
H4H8087P (antibody, human IgG4, V domains shown, human IgG4 Fc (H4H prefix)) VH: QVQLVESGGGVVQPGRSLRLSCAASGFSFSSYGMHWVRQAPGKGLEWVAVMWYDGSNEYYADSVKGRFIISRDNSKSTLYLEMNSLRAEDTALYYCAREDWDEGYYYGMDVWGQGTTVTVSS VL: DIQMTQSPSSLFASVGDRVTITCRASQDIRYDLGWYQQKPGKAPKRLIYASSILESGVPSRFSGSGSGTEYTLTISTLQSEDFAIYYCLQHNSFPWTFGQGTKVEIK	-1.06

Consider the additional binder presented here.
Look up log10 Kd of H4H8066P (antibody, human IgG4, V domains shown, human IgG4 Fc (H4H prefix)) VH: EVQLVESGGGLVQPGGSLRLSCEASGFTFSRYAMTWVRQAPGKGLEWVSGISGSGGSTFYVDSLQGRFTLSRDNSKHTLFLQMNSLRAEDTAIYYCAKENTYGHFDYWGQGTLVTVSS VL: DIQLTQSPSFLSASVGDRVTITCWASQDISTYLAWYQQKPGKAPQVLIYAASSLQYGVPSRFSGSGSGTEFTLTITSLQPEDFATYYCQQLIGYPYIFGQGTKLEIK and report it.
-0.24
